From: ChEMBL document CHEMBL4689842

Test system: HEK-293T
Test: Multiplex assay against HEK293T
Assay type: toxicity, cell-based
Settings: human, 12 h, 10 µM, compound concentration 10 uM, replicate 2
# TRUE = Population Mitotic Cells (%) below 80% (exclusive); FALSE = Population Mitotic Cells (%) at/above 80%

A selection of reference data follows.
CN1CCN(C(=O)C(C)(C)c2ccc(C(=O)Nc3cn4cc(-c5cc(C(C)(C)C)cc(C(C)(C)C)c5)ccc4n3)cc2)CC1 : TRUE
O=C(Nc1cccnn1)N1CCC(=Cc2cccc(Oc3ccc(C(F)(F)F)cn3)c2)CC1 : FALSE
Cc1ccc2nc(NCCN)c3ncc(C)n3c2c1.O=C(O)C(F)(F)F.O=C(O)C(F)(F)F : TRUE
COc1cccc2cc(-c3nc([C@H]4CC[C@H](C(=O)O)CC4)n4ncnc(N)c34)[nH]c12 : FALSE
C=C1/C(=C\C=C2/CCC[C@]3(C)[C@@H]([C@H](C)/C=C/[C@H](C)C(C)C)CC[C@@H]23)C[C@@H](O)C[C@@H]1O : FALSE
CCOc1cc(C(=O)N2CCC(N3CCN(C)CC3)CC2)ccc1Nc1ncc2c(n1)N(C1CCCC1)c1ccccc1C(=O)N2C : TRUE

Consider now this further molecule.
Please indicate whether the reported Population Mitotic Cells (%) of COC(=N)c1nc2ccc3ncnc(Nc4ccc(OC)cc4F)c3c2s1 is strictly below 80%. FALSE

---

System: U2OS
Assay: Multiplex assay against U2OS
Assay type: toxicity, cell-based
Conditions: human, 48 h, 10 µM, compound concentration 10 uM, replicate 2
Experimental endpoint: Population Tubulin-Different-Phenotype (%)
Numbers only, in %.

C=C1/C(=C\C=C2/CCC[C@]3(C)[C@@H]([C@H](C)/C=C/[C@H](C)C(C)C)CC[C@@H]23)C[C@@H](O)C[C@@H]1O [DOXERCALCIFEROL] : 28
CCCS(=O)(=O)c1nc(NC2CC2)cc(-c2ccc3c(ccn3C3CC(C)(C)NC(C)(C)C3)c2)n1 : 94
CCCn1c(=O)c2[nH]c(-c3cnn(Cc4cccc(C(F)(F)F)c4)c3)nc2n(CC)c1=O [GS 6201] : 13
Cc1cc(C)c(S(=O)(=O)N(Cc2ccc(-c3cccc(S(C)(=O)=O)c3)cc2)Cc2ccc(C(F)(F)F)o2)c(C)c1 : 13
O=C(Nc1ccc(-n2nc(-c3cccnc3)cc2C(F)(F)F)cn1)c1ccc(-c2ccccc2)c(F)c1 [BI 2049] : 6
CCc1cccc(CC)c1NC(=O)c1nn(C)c2c1CCc1cnc(Nc3ccc(C(=O)NC4CCN(C)CC4)cc3OC(F)(F)F)nc1-2 : 64

Shift focus to the following entry.
Documented Population Tubulin-Different-Phenotype (%) of COc1cc(N2CCN(C)CC2)ccc1Nc1ncc2c(n1)N(C)c1ccccc1C(=O)N2C : 61

---

Tested on: U2OS
Experiment: Multiplex assay against U2OS
Assay type: toxicity, cell-based
Conditions: human, 12 h, 1 µM, compound concentration 1 uM, replicate 1
Definition: the class of an entry is the range in class A: < 4%; class B: ≥ 4% and < 7%; class C: ≥ 7% that contains its Population Hoechst High Intensity Objects (%).

A selection of reference data follows.
COc1cc2ncnc(Nc3ccc(F)c(Cl)c3)c2cc1NC(=O)/C=C/CN1CCCCC1 [DACOMITINIB ANHYDROUS] : class B
O=C(Nc1ccc(-c2ccnc(Nc3ccc(N4CCOCC4)cc3)n2)cc1)[C@@H]1CCCN1 : class A
CCCS(=O)(=O)Nc1ccc(F)c(C(=O)c2c[nH]c3ncc(Cl)cc23)c1F [PLX-4720] : class A
NC(=O)c1cccc(-c2cc(Nc3ccc(OC(F)(F)F)cc3)ncn2)c1 : class A
Cc1cn(-c2cc(NC(=O)c3ccc(C)c(Nc4nccc(-c5cccnc5)n4)c3)cc(C(F)(F)F)c2)cn1 [NILOTINIB] : class C

Class label required: CCCS(=O)(=O)c1nc(NC2CC2)cc(-c2ccc3c(ccn3C3CC(C)(C)NC(C)(C)C3)c2)n1 class B

Class label required: COc1ccc(S(=O)(=O)N(CCO)c2ccccc2CN(C)C/C=C/c2ccc(Cl)cc2)cc1.O=P(O)(O)O class A

Class label required: Cl.Oc1ccc2c3c1O[C@H]1c4[nH]c5c(c4C[C@@]4(O)[C@@H](C2)N(CC2CC2)CC[C@]314)C[C@@]1(O)[C@H]2Cc3ccc(O)c4c3[C@@]1(CCN2CC1CC1)[C@H]5O4 class B

---

Tested on: U2OS
Experiment: Multiplex assay against U2OS
Assay type: toxicity, cell-based
Details: human, 24 h, 1 µM, compound concentration 1 uM, replicate 2
I'd appreciate it if you could supply Population Apoptotic (%) values for the items below.
One number for each entry, in %.

Use these answered entries as a reference point.
C=CCn1c(=O)c2cnc(Nc3ccc(N4CCN(C)CC4)cc3)nc2n1-c1cccc(C(C)(C)O)n1 : 50
CCn1c(=O)c(-c2ccc(-c3cncs3)cc2Cl)cc2cnc(Nc3ccc(N4CCN(C)CC4)cc3)nc21 : 46
COc1cc(N2CCN(C)CC2)ccc1Nc1ncc2c(n1)N(C)c1ccccc1C(=O)N2C : 50

Hey, can you go through the list below and give me Population Apoptotic (%) for every item?
1. O=C(Cc1ccc(-c2ccc(OCCN3CCOCC3)cc2)cn1)NCc1ccccc1
2. Cc1ccc(C(=O)Nc2cccc(C(F)(F)F)c2)cc1Nc1nc(-c2cccnc2)nc2c1cnn2C
3. COc1ccc(S(=O)(=O)N(CCO)c2ccccc2CN(C)C/C=C/c2ccc(Cl)cc2)cc1.O=P(O)(O)O
4. S=C(NCCCc1c[nH]cn1)NCCCN(Cc1ccc(Cl)c(Cl)c1)c1ccc(Br)cn1
5. CCOC(=O)c1c(C)[nH]c2ccc3c(c12)CN1CCc2cc(OC)ccc2C1O3 (stereo not drawn)
6. CCc1cccc(CC)c1NC(=O)c1nn(C)c2c1CCc1cnc(Nc3ccc(N4CCN(C)CC4)cc3OC)nc1-2
7. Cl.O=c1c2cccn2c2ccccc2n1CCCN1CCC(c2ccc(Cl)cc2)CC1

1. 61
2. 27
3. 95
4. 0
5. 8
6. 92
7. 25

---

I'd appreciate it if you could supply Population Mitotic Cells (%) values for the items below.
System: HEK-293T
Experiment: Multiplex assay against HEK293T
Format: toxicity, cell-based
Conditions: human, 48 h, 1 µM, compound concentration 1 uM, replicate 1

Use these answered entries as a reference point.
O=C(Nc1ccc(-c2ccnc(Nc3ccc(N4CCOCC4)cc3)n2)cc1)[C@@H]1CCCN1 : 51%
CCc1cccc(CC)c1NC(=O)c1nn(C)c2c1CCc1cnc(Nc3ccc(C(=O)NC4CCN(C)CC4)cc3OC(F)(F)F)nc1-2 : 56%
Cl.Oc1ccc2c3c1O[C@H]1c4[nH]c5c(c4C[C@@]4(O)[C@@H](C2)N(CC2CC2)CC[C@]314)C[C@@]1(O)[C@H]2Cc3ccc(O)c4c3[C@@]1(CCN2CC1CC1)[C@H]5O4 : 56%
CN1C2CCC1CC(OC(c1ccc(F)cc1)c1ccc(F)cc1)C2.Cl (stereo not drawn) : 52%
Cc1cn(-c2cc(NC(=O)c3ccc(C)c(Nc4nccc(-c5cccnc5)n4)c3)cc(C(F)(F)F)c2)cn1 : 36%

Hey, can you go through the list below and give me Population Mitotic Cells (%) for every item?
1. O=C1NC(=O)C(c2cnc3ccccn23)=C1c1cn2c3c(cc(F)cc13)CN(C(=O)N1CCCCC1)CC2
2. CCn1c(=O)c(-c2ccc(-c3cncs3)cc2Cl)cc2cnc(Nc3ccc(N4CCN(C)CC4)cc3)nc21
3. CN(C)C(=O)C(CCN1CCC(O)(c2ccc(Cl)cc2)CC1)(c1ccccc1)c1ccccc1.Cl [LOPERAMIDE HYDROCHLORIDE]
4. Cc1ccc(C(=O)Nc2cccc(C(F)(F)F)c2)cc1Nc1nc(-c2cccnc2)nc2c1cnn2C
5. CCCS(=O)(=O)c1nc(NC2CC2)cc(-c2ccc3c(ccn3C3CC(C)(C)NC(C)(C)C3)c2)n1

1: 47%; 2: 49%; 3: 24%; 4: 47%; 5: 45%

Hey, can you go through the list below and give me Population Mitotic Cells (%) for every item?
1. S=C(NCCCc1c[nH]cn1)NCCCN(Cc1ccc(Cl)c(Cl)c1)c1ccc(Br)cn1
2. Cc1cc(C)c(S(=O)(=O)N(Cc2ccc(-c3cccc(S(C)(=O)=O)c3)cc2)Cc2ccc(C(F)(F)F)o2)c(C)c1
3. Cl.O=c1c2cccn2c2ccccc2n1CCCN1CCC(c2ccc(Cl)cc2)CC1
4. CNc1cc(Oc2cc(C(=O)Nc3cc(N4CCN(C)CC4)cc(C(F)(F)F)c3)ccc2C)ncn1
5. CCOc1cc(C(=O)N2CCC(N3CCN(C)CC3)CC2)ccc1Nc1ncc2c(n1)N(C1CCCC1)c1ccccc1C(=O)N2C
6. CCN1CCN(Cc2ccc(Nc3ncc(F)c(-c4cc(F)c5nc(C)n(C(C)C)c5c4)n3)nc2)CC1.CS(=O)(=O)O
7. O=C1N/C(=N/c2ccccc2F)S/C1=C\c1ccc(C(=O)O)cc1
8. O=C(Nc1ccc(-n2nc(-c3cccnc3)cc2C(F)(F)F)cn1)c1ccc(-c2ccccc2)c(F)c1

1. 50%
2. 53%
3. 56%
4. 31%
5. 35%
6. 41%
7. 55%
8. 46%
